# System: SW48 cell line (gastric)
# METHOD NOTES: MTT cytotoxicity assay, SW48
# Assay type: cell-based
# CONDITION PARAMETERS: MTT assay, 72 hour incubation; read-out: Cytotoxicity SW48 (72 hrs)

{"columns": ["COMPOUND", "IC50 [µM]"],
 "data": [
  ["CC(C)(C)OC(=O)N1CC2CC23C1=CC(=O)c1ccccc13 (stereo not shown)", 4.39]
]}

----------
# System: linear double-stranded HexARev DNA fragment
# METHOD NOTES: DNA cleavage assay, HexARev fragment
# Assay type: biochemical
# CONDITION PARAMETERS: ligand concentration 10 μM and 100 nM (FIG. 16)
MEASUREMENT NAME: cleavage of HexARev DNA fragment

{"columns": ["MOLECULE", "MEASURED RESULT"],
 "data": [
  ["COc1cc2c(cc1OCCCC(=O)N1C[C@@H](CCl)c3c1cc(O)c1ccccc31)N=C[C@@H]1CCCCN1C2=O [Compound 13]", "cleave DNA"],
  ["COc1cc2c(cc1OCc1cccc(CC(=O)N3C[C@@H](CCl)c4c3cc(O)c3ccccc43)c1)N=C[C@@H]1CCCCN1C2=O [Compound 42]", "cleave DNA"],
  ["COc1cc2c(cc1OCCCCCC(=O)N1C[C@@H](CCl)c3c1cc(O)c1ccccc31)N=C[C@@H]1CCCCN1C2=O [Compound 99]", "cleave DNA"]
]}

Taken from patent US20240002379A1.
